assay: Antiproliferative activity against chinese hamster R2(VC) cells assessed as reduction of viable cells after 96 hrs; conditions: Cricetulus griseus
measurement-type: IC50

- Nc1nc(N)c2nc(CNc3ccc(C(=O)N[C@@H](CCCNC(=O)c4ccccc4C(=O)O)C(=O)O)cc3)cnc2n1: > 1000 nM
- Nc1nc2[nH]c(CCCCc3ccc(C(=O)N[C@@H](CCC(=O)O)C(=O)O)s3)cc2c(=O)[nH]1: > 1000 nM
- Nc1nc2[nH]c(CCc3ccc(C(=O)N[C@@H](CCC(=O)O)C(=O)O)s3)cc2c(=O)[nH]1: > 1000 nM
- Nc1nc2[nH]c(CCCc3ccc(C(=O)N[C@@H](CCC(=O)O)C(=O)O)s3)cc2c(=O)[nH]1: 288 nM

====

test system: R2; assay: Antiproliferative activity against chinese hamster R2 cells expressing human PCFT assessed as reduction of viable cells after 96 hrs; format: functional, cell-based; details: Cricetulus griseus, R2, 96 h
measurement-type: IC50

- Nc1nc(N)c2nc(CNc3ccc(C(=O)N[C@@H](CCCNC(=O)c4ccccc4C(=O)O)C(=O)O)cc3)cnc2n1: > 1000 nM
- Nc1nc2[nH]c(CCc3ccc(C(=O)N[C@@H](CCC(=O)O)C(=O)O)s3)cc2c(=O)[nH]1: 135 nM
- Nc1nc2[nH]c(Cc3ccc(C(=O)N[C@@H](CCC(=O)O)C(=O)O)s3)cc2c(=O)[nH]1: 291 nM
- Nc1nc2c(c(=O)[nH]1)C[C@@H](CCc1ccc(C(=O)N[C@@H](CCC(=O)O)C(=O)O)cc1)CN2 [LOMETREXOL]: 38 nM

====

test system: R2; experiment: Decrease in intracellular ATP concentration in chinese hamster R2 cells expressing human PCFT at 1 uM after 24 hrs by HPLC relative to control at pH 6.8; assay type: functional, Cricetulus griseus; parameters: scale not given: the % may be the effect or the level left
measurement-type: Activity (%)

- Nc1nc2[nH]c(CCCCc3ccc(C(=O)N[C@@H](CCC(=O)O)C(=O)O)s3)cc2c(=O)[nH]1: 90
- Nc1nc2[nH]c(CCCc3ccc(C(=O)N[C@@H](CCC(=O)O)C(=O)O)s3)cc2c(=O)[nH]1: 90
- Nc1nc2c(c(=O)[nH]1)C[C@@H](CCc1ccc(C(=O)N[C@@H](CCC(=O)O)C(=O)O)cc1)CN2 [LOMETREXOL]: 76
- Nc1nc2[nH]cc(CCc3ccc(C(=O)N[C@@H](CCC(=O)O)C(=O)O)cc3)c2c(=O)[nH]1: 17

====

assay: Antiproliferative activity against chinese hamster PC43-10 expressing human RFC assessed as reduction of viable cells after 96 hrs; format: functional; conditions: Cricetulus griseus, PC43-10, 96 h
Consider the following molecules and their measured IC50 readings.
measurement-type: IC50

• Nc1nc2[nH]c(CCc3ccc(C(=O)N[C@@H](CCC(=O)O)C(=O)O)s3)cc2c(=O)[nH]1 = > 1000 nM
• Nc1nc2[nH]c(Cc3ccc(C(=O)N[C@@H](CCC(=O)O)C(=O)O)s3)cc2c(=O)[nH]1 = > 1000 nM
• Nc1nc2[nH]c(CCCCc3ccc(C(=O)N[C@@H](CCC(=O)O)C(=O)O)s3)cc2c(=O)[nH]1 = > 1000 nM
• Nc1nc2[nH]c(CCCc3ccc(C(=O)N[C@@H](CCC(=O)O)C(=O)O)s3)cc2c(=O)[nH]1 = 101 nM

====

Catalogue of IC50 values
assay: Antiproliferative activity against chinese hamster D4 cells expressing human FRbeta assessed as reduction of viable cells after 96 hrs in the presence of 200 nM folic acid; type: functional, cell-based; settings: Cricetulus griseus, D4, 96 h
measurement-type: IC50

* Nc1nc2[nH]c(CCCCc3ccc(C(=O)N[C@@H](CCC(=O)O)C(=O)O)s3)cc2c(=O)[nH]1 | > 1000 nM
* Nc1nc2[nH]c(CCc3ccc(C(=O)N[C@@H](CCC(=O)O)C(=O)O)s3)cc2c(=O)[nH]1 | > 1000 nM

====

Listed here are compounds together with their documented pIC50.
assay: Antiproliferative activity against chinese hamster RT16 cells expressing human FRalpha assessed as reduction of viable cells after 96 hrs in the presence of 200 nM folic acid; type: functional, cell-based; conditions: Cricetulus griseus, RT16, 96 h
pIC50: −log10 of the molar value.
measurement-type: pIC50

• Nc1nc2[nH]c(Cc3ccc(C(=O)N[C@@H](CCC(=O)O)C(=O)O)s3)cc2c(=O)[nH]1 = < 6.00
• Nc1nc2c(c(=O)[nH]1)C[C@@H](CCc1ccc(C(=O)N[C@@H](CCC(=O)O)C(=O)O)cc1)CN2 [LOMETREXOL] = < 6.73
• Nc1nc2[nH]c(CCCCc3ccc(C(=O)N[C@@H](CCC(=O)O)C(=O)O)s3)cc2c(=O)[nH]1 = < 6.00
• Nc1nc2[nH]c(CCc3ccc(C(=O)N[C@@H](CCC(=O)O)C(=O)O)s3)cc2c(=O)[nH]1 = < 6.00
• Nc1nc2[nH]c(CCCc3ccc(C(=O)N[C@@H](CCC(=O)O)C(=O)O)s3)cc2c(=O)[nH]1 = < 6.00

====

Below: a set of entries, each annotated with reported IC50.
assay: Antiproliferative activity against chinese hamster R2(VC) cells assessed as reduction of viable cells after 96 hrs; conditions: Cricetulus griseus
measurement-type: IC50

• Nc1nc2[nH]c(Cc3ccc(C(=O)N[C@@H](CCC(=O)O)C(=O)O)s3)cc2c(=O)[nH]1 = > 1000 nM
• Nc1nc2c(c(=O)[nH]1)C[C@@H](CCc1ccc(C(=O)N[C@@H](CCC(=O)O)C(=O)O)cc1)CN2 [LOMETREXOL] = > 1000 nM
• CN(Cc1cnc2nc(N)nc(N)c2n1)c1ccc(C(=O)N[C@@H](CCC(=O)O)C(=O)O)cc1 [METHOTREXATE] = > 1000 nM

====

Target: Reduced folate transporter (Homo sapiens) (UniProt P41440)
Sequence (whole entry): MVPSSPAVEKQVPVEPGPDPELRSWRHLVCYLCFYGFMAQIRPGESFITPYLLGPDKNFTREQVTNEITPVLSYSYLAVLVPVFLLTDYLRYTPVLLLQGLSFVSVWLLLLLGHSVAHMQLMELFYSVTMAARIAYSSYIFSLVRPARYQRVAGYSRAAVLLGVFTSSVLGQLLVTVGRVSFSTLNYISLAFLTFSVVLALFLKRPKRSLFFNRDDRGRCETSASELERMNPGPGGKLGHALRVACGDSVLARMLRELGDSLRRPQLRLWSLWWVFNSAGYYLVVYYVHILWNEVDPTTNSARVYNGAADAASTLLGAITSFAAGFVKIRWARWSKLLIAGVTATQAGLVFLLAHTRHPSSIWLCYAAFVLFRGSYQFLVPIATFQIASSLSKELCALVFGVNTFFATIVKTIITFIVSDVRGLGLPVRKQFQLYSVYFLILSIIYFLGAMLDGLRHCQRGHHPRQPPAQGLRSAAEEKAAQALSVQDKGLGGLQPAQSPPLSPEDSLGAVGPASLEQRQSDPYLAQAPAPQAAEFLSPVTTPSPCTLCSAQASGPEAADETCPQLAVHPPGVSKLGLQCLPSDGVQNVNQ
Assay: Inhibition of human RFC-mediated [3H]MTX uptake in chinese hamster PC43-10 cells at 10 uM after 2 mins relative to control
Type: cell-based
Active and inactive are the calls of the source. No cut-off for these calls is given here.
measurement-type: inhibition

- Cc1nc(=O)c2cc(CN(C)c3ccc(C(=O)N[C@@H](CCC(=O)O)C(=O)O)s3)ccc2[nH]1: Active
- Nc1nc(=O)c2c([nH]1)NCC(CNc1ccc(C(=O)N[C@@H](CCC(=O)O)C(=O)O)cc1)N2C=O (mixture of isomers): Active
- Nc1nc2[nH]cc(CCc3ccc(C(=O)N[C@@H](CCC(=O)O)C(=O)O)cc3)c2c(=O)[nH]1: Active
